Source of measurements: patent US20250250357A1

Target: T1, human MSLN-FL-his protein (human, UniProt Q13421 296-580)
T1 construct: also called human MSLN full-length protein; hMSLN-FL-his; not shown: His tag
T1 sequence (Q13421 other isoform, or with tags, fused parts or gaps): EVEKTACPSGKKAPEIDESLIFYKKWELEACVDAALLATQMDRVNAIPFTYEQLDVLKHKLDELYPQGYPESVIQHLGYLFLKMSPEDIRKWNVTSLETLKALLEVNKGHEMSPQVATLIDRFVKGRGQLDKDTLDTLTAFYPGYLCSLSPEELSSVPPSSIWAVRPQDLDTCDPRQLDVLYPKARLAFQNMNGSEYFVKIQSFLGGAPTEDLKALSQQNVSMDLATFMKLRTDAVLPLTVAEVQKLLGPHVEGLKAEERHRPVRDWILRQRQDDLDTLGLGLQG
Experiment: ELISA, coated MSLN full-length;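 note: binding of chimeric antibodies to plate-bound antigen, read by TMB colour after acid stop, antibody incubated 2 h at 37 °C, negative control antibody run alongside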
TEST_READOUT: OD450 at 1 nM

Some solved entries appear below for comparison.
BINDER | OD450 at 1 nM
S009-F2.58.8 (antibody, human IgG1, kappa, V domains shown, Human-murine chimeric antibody, human IgG1/kappa constant regions) VH: QVQLLQSGAELAKPGASVKLSCKASGYTFTSYWVHWVKQRPGQGLEWIGYINPNSGYTKYNQKFKDKATLTADKSSSTAYMQLSSLTYEDSAVYYCADHYYGSSRDYFDYWGQGTTLTVSS VL: QIVLTQSPAIMSASPGEKVTMTCSASSSVSYMYWYQQRPGSSPRLLIYDTSNLASGVPVRFSGSGSGTSYSLTISRMEAEDAATYYCQQWNSYPYTFGGGTKLEIKR | 1.56 OD450
S009-F2.47.1 (antibody, human IgG1, kappa, V domains shown, Human-murine chimeric antibody, human IgG1/kappa constant regions) VH: QVQLQQPGAELVKPGASVKLSCKASGYTFTSYWMHWVKQRPGQGLEWIGMIHPNSGSTNYNEKFKSKATLTVDKSSSTAYMQLSSLTSEDSAVYYCARPVVPYWYFDVWGTGTTVTVSS VL: DIVMTQSQKFMSTTVGDRVSITCKASQNVGTAVAWYQQKPGQSPKLLIYSASNRYTGVPDRFTGSGSGTDFTLTISNMQSEDLADYFCQQSSSYPLTFGAGTKLELKR | 2.31 OD450

## Task Given the binder S009-F2.13.3 (antibody, human IgG1, kappa, V domains shown, Human-murine chimeric antibody, human IgG1/kappa constant regions) VH: QVQLQQSGAELMKPGASVKLSCKATGYTFTGYWIEWVKQRPGHGLEWIGEILPGSGSTNYNEKFKGKATFTADTSSNTAYMQLSSLTTEDSAIYYCARAGAWFAYWGQGTLVTVSA VL: QIVLTQSPAIMSASLGERVTMTCTASSSVSSSYLHWYQQKPGSSPKLWTYSTSNLASGVPARFSGSGSGTSYSLTISSMEAEDAATYYCHQYHRSPWTFGGGTKLEIKR , what is its reported OD450 at 1 nM?
## Result 2.08 OD450
